B1: Alpha-lactalbumin, P00712 (parent)
chain: MMSFVSLLLVGILFHATQAEQLTKCEVFQKLKDLKDYGGVSLPEWVCTAFHTSGYDTQAIVQNNDSTEYGLFQINNKIWCKDDQNPHSRNICNISCDKFLDDDLTDDIVCAKKILDKVGINYWLAHKALCSEKLDQWLCEKL

# Variants of: B1
# study_conditions: Capra hircus; pH 7; 25 °C; GdnHCl; CD; sodium cacodylate 50 mM; NaCl 50 mM; reversible: yes; structure 1HFY; whole UniProt chain shown
measurement_type: ddG of mutation (higher = less stable) (kcal/mol)
Value expressed in kcal/mol; do not type the unit.

So, T52I ? Its ddG of mutation (higher = less stable) was 1.1

So, A49T ? Its ddG of mutation (higher = less stable) was -1.7

So, A49I T52I ? Its ddG of mutation (higher = less stable) was -0.4

So, T48I ? Its ddG of mutation (higher = less stable) was -4.4

So, A49I ? Its ddG of mutation (higher = less stable) was -2.4
